Where do the numbers come from? From paper PMC5031577.

# protocol.summary: Biodistribution in Daudi lymphoma xenograft bearing SCID mice
# Type: in vivo, mouse
# measurement.parameters: female, CB-17 SCID, mouse, pancreas, iv, total radioactivity, co-injection of 50 μg AMD3100, n = 3, 1.5 h p.i., mean ± SD; read-out: Pancreas uptake
# Experimental: For PET (n = 3) and biodistribution studies (n = 5), an average of 15.2 MBq [^68Ga]NOTA-pentixafor (100 μL in PBS, 145 pmol, 171 ng) with a specific activity (AS) of 104 GBq/μmol was injected intravenously into the tail vein of isofluorane anesthesized female Daudi lymphoma-bearing SCID mice. […] The percentage of injected dose per gram of tissue (% ID/g) was calculated; data are shown as mean ± SD.
Square brackets hold non-standard residues; d marks the D form. Side chains are listed from the residue outwards. Peptide text beside a SMILES is read from it. * marks the point of attachment. NOTA = O=C(O)CN1CCN(CC(=O)O)CCN(CC(=O)*)CC1; 2Nal = N[C@@H](Cc1ccc2ccccc2c1)C(=O)O; dNMeOrn = CN[C@H](CCCN)C(=O)O; 4Amb = NCc1ccc(C(=O)O)cc1
endpoint.label: tissue uptake at 1.5 h (%ID/g)
Your answer is read as %ID/g, so omit the unit and give the number.

Exercise: What value of tissue uptake at 1.5 h has been reported for the following compound? CN1C(=O)[C@@H](Cc2ccc(O)cc2)NC(=O)CNC(=O)[C@H](Cc2ccc3ccccc3c2)NC(=O)[C@H](CCCNC(=N)N)NC(=O)[C@H]1CCCNC(=O)c1ccc(CNC(=O)CN2CCN(CC(=O)O)CCN(CC(=O)O)CC2)cc1 [[^68Ga]NOTA-pentixafor, metal not drawn] (cyclo([2Nal]G[dY][dNMeOrn]([4Amb-NOTA])R))
Solution: 0.16

====

Catalogue of tissue uptake at 1.5 h values
# protocol.summary: Biodistribution in Daudi lymphoma xenograft bearing SCID mice
# Assay type: in vivo, mouse
# measurement.parameters: female, CB-17 SCID, mouse, lung, iv, 15.2 MBq, total radioactivity, tracer only, i.v., 1.5 h p.i., mean ± SD; read-out: Lung uptake
Square brackets hold non-standard residues; d marks the D form. Side chains are listed from the residue outwards. Peptide text beside a SMILES is read from it. * marks the point of attachment. DOTA = O=C(O)CN1CCN(CC(=O)O)CCN(CC(=O)*)CCN(CC(=O)O)CC1; NOTA = O=C(O)CN1CCN(CC(=O)O)CCN(CC(=O)*)CC1; 2Nal = N[C@@H](Cc1ccc2ccccc2c1)C(=O)O; dNMeOrn = CN[C@H](CCCN)C(=O)O; 4Amb = NCc1ccc(C(=O)O)cc1
Your answer should be a plain number; it is taken to be in %ID/g.

CN1C(=O)[C@@H](Cc2ccc(O)cc2)NC(=O)CNC(=O)[C@H](Cc2ccc3ccccc3c2)NC(=O)[C@H](CCCNC(=N)N)NC(=O)[C@H]1CCCNC(=O)c1ccc(CNC(=O)CN2CCN(CC(=O)O)CCN(CC(=O)O)CCN(CC(=O)O)CC2)cc1 [[^68Ga]pentixafor, metal not drawn] (cyclo([dY][dNMeOrn]([4Amb-DOTA])R[2Nal]G)) :: 1.32

Exercise: Request the reported tissue uptake at 1.5 h associated with CN1C(=O)[C@@H](Cc2ccc(O)cc2)NC(=O)CNC(=O)[C@H](Cc2ccc3ccccc3c2)NC(=O)[C@H](CCCNC(=N)N)NC(=O)[C@H]1CCCNC(=O)c1ccc(CNC(=O)CN2CCN(CC(=O)O)CCN(CC(=O)O)CC2)cc1 [[^68Ga]NOTA-pentixafor, metal not drawn] (cyclo([2Nal]G[dY][dNMeOrn]([4Amb-NOTA])R))
Solution: 0.73

====

# protocol.summary: Biodistribution in Daudi lymphoma xenograft bearing SCID mice
# Type: in vivo, mouse
# measurement.parameters: female, CB-17 SCID, mouse, adrenals, iv, 15.2 MBq, total radioactivity, tracer only, i.v., 1.5 h p.i., mean ± SD; read-out: Adrenals uptake
Square brackets hold non-standard residues; d marks the D form. Side chains are listed from the residue outwards. Peptide text beside a SMILES is read from it. * marks the point of attachment. DOTA = O=C(O)CN1CCN(CC(=O)O)CCN(CC(=O)*)CCN(CC(=O)O)CC1; NOTA = O=C(O)CN1CCN(CC(=O)O)CCN(CC(=O)*)CC1; 2Nal = N[C@@H](Cc1ccc2ccccc2c1)C(=O)O; dNMeOrn = CN[C@H](CCCN)C(=O)O; 4Amb = NCc1ccc(C(=O)O)cc1
endpoint.label: tissue uptake at 1.5 h (%ID/g)
Answer format: numeric, %ID/g implied, no suffix.

CN1C(=O)[C@@H](Cc2ccc(O)cc2)NC(=O)CNC(=O)[C@H](Cc2ccc3ccccc3c2)NC(=O)[C@H](CCCNC(=N)N)NC(=O)[C@H]1CCCNC(=O)c1ccc(CNC(=O)CN2CCN(CC(=O)O)CCN(CC(=O)O)CCN(CC(=O)O)CC2)cc1 [[^68Ga]pentixafor, metal not drawn] (cyclo([dY][dNMeOrn]([4Amb-DOTA])R[2Nal]G)) :: 3.68

Now turn to the next compound.
Exercise: Please report the recorded tissue uptake at 1.5 h for CN1C(=O)[C@@H](Cc2ccc(O)cc2)NC(=O)CNC(=O)[C@H](Cc2ccc3ccccc3c2)NC(=O)[C@H](CCCNC(=N)N)NC(=O)[C@H]1CCCNC(=O)c1ccc(CNC(=O)CN2CCN(CC(=O)O)CCN(CC(=O)O)CC2)cc1 [[^68Ga]NOTA-pentixafor, metal not drawn] (cyclo([2Nal]G[dY][dNMeOrn]([4Amb-NOTA])R)) .
Solution: 0.52

====

# protocol.summary: Biodistribution in Daudi lymphoma xenograft bearing SCID mice
# Format: in vivo, mouse
# measurement.parameters: female, CB-17 SCID, mouse, gallbladder, iv, total radioactivity, co-injection of 50 μg AMD3100, n = 3, 1.5 h p.i., mean ± SD; read-out: Gallbladder uptake
Square brackets hold non-standard residues; d marks the D form. Side chains are listed from the residue outwards. Peptide text beside a SMILES is read from it. * marks the point of attachment. NOTA = O=C(O)CN1CCN(CC(=O)O)CCN(CC(=O)*)CC1; 2Nal = N[C@@H](Cc1ccc2ccccc2c1)C(=O)O; dNMeOrn = CN[C@H](CCCN)C(=O)O; 4Amb = NCc1ccc(C(=O)O)cc1
endpoint.label: tissue uptake at 1.5 h (%ID/g)
Answer with a number only, understood to be in %ID/g.

Exercise: Please report the recorded tissue uptake at 1.5 h for CN1C(=O)[C@@H](Cc2ccc(O)cc2)NC(=O)CNC(=O)[C@H](Cc2ccc3ccccc3c2)NC(=O)[C@H](CCCNC(=N)N)NC(=O)[C@H]1CCCNC(=O)c1ccc(CNC(=O)CN2CCN(CC(=O)O)CCN(CC(=O)O)CC2)cc1 [[^68Ga]NOTA-pentixafor, metal not drawn] (cyclo([2Nal]G[dY][dNMeOrn]([4Amb-NOTA])R)) .
Solution: 5.14

====

# protocol.summary: Biodistribution in Daudi lymphoma xenograft bearing SCID mice
# Assay type: in vivo, mouse
# measurement.parameters: female, CB-17 SCID, mouse, bone, iv, 15.2 MBq, total radioactivity, tracer only, i.v., 1.5 h p.i., mean ± SD; read-out: Bone uptake
Square brackets hold non-standard residues; d marks the D form. Side chains are listed from the residue outwards. Peptide text beside a SMILES is read from it. * marks the point of attachment. NOTA = O=C(O)CN1CCN(CC(=O)O)CCN(CC(=O)*)CC1; 2Nal = N[C@@H](Cc1ccc2ccccc2c1)C(=O)O; dNMeOrn = CN[C@H](CCCN)C(=O)O; 4Amb = NCc1ccc(C(=O)O)cc1
endpoint.label: tissue uptake at 1.5 h (%ID/g)
Response body: numeric value in %ID/g, unit text excluded.

Exercise: Value lookup for tissue uptake at 1.5 h; key = CN1C(=O)[C@@H](Cc2ccc(O)cc2)NC(=O)CNC(=O)[C@H](Cc2ccc3ccccc3c2)NC(=O)[C@H](CCCNC(=N)N)NC(=O)[C@H]1CCCNC(=O)c1ccc(CNC(=O)CN2CCN(CC(=O)O)CCN(CC(=O)O)CC2)cc1 [[^68Ga]NOTA-pentixafor, metal not drawn] (cyclo([2Nal]G[dY][dNMeOrn]([4Amb-NOTA])R))
Solution: 0.25

====

# protocol.summary: Biodistribution in Daudi lymphoma xenograft bearing SCID mice
# Type: in vivo, mouse
# measurement.parameters: female, CB-17 SCID, mouse, gallbladder, iv, 15.2 MBq, total radioactivity, tracer only, i.v., 1.5 h p.i., mean ± SD; read-out: Gallbladder uptake
# Experimental: For PET (n = 3) and biodistribution studies (n = 5), an average of 15.2 MBq [^68Ga]NOTA-pentixafor (100 μL in PBS, 145 pmol, 171 ng) with a specific activity (AS) of 104 GBq/μmol was injected intravenously into the tail vein of isofluorane anesthesized female Daudi lymphoma-bearing SCID mice. […] The percentage of injected dose per gram of tissue (% ID/g) was calculated; data are shown as mean ± SD.
Square brackets hold non-standard residues; d marks the D form. Side chains are listed from the residue outwards. Peptide text beside a SMILES is read from it. * marks the point of attachment. NOTA = O=C(O)CN1CCN(CC(=O)O)CCN(CC(=O)*)CC1; 2Nal = N[C@@H](Cc1ccc2ccccc2c1)C(=O)O; dNMeOrn = CN[C@H](CCCN)C(=O)O; 4Amb = NCc1ccc(C(=O)O)cc1
endpoint.label: tissue uptake at 1.5 h (%ID/g)
Write the number in %ID/g without appending the unit.

Exercise: Which tissue uptake at 1.5 h reading was recorded for the molecule CN1C(=O)[C@@H](Cc2ccc(O)cc2)NC(=O)CNC(=O)[C@H](Cc2ccc3ccccc3c2)NC(=O)[C@H](CCCNC(=N)N)NC(=O)[C@H]1CCCNC(=O)c1ccc(CNC(=O)CN2CCN(CC(=O)O)CCN(CC(=O)O)CC2)cc1 [[^68Ga]NOTA-pentixafor, metal not drawn] (cyclo([2Nal]G[dY][dNMeOrn]([4Amb-NOTA])R)) ?
Solution: 3.61
